- assay: qHTS of pediatric cancer cell lines to identify multiple opportunities for drug repurposing: Primary screen for RD cells (AID 1347104); also: nearly all actives have a fitted effect of over 55% in size
- assay.conditions: RD rhabdomyosarcoma viability, CellTiter-Glo luminescence, 48 h; series mostly up to 46 µM
Records with an inconclusive call do not appear. Calls of active or inactive are those of the source. Calls follow the shape of the dose curve; as a rule, active = well fitted cell-killing curve with a large enough effect; inconclusive = small, poorly fitted or top-dose-only effect; inactive = flat fitted curve, though single readings scatter.
readout.name: outcome

For orientation, consider the following solved cases.
compound	outcome
COc1ccc(C2(C#N)CCC(C(=O)O)CC2)cc1OC1CCCC1 (stereo not given)	inactive
O=C(O)c1cccnc1Nc1cccc(C(F)(F)F)c1	inactive
Clc1ccc2c(N3CCN(CCCN4CCN(c5ccnc6cc(Cl)ccc56)CC4)CC3)ccnc2c1	inactive
O=C1NC(=O)C(c2ccccc2[N+](=O)[O-])=C1Nc1ccc(O)c(Cl)c1	inactive

Turning now to a further record.
Record N=C(N)c1ccc2cc(OC(=O)c3ccc(N=C(N)N)cc3)ccc2c1 . Reported outcome: inactive
